# testTarget: TBK1 (Homo sapiens)
# Sequence (Q9UHD2 whole entry, species assumed): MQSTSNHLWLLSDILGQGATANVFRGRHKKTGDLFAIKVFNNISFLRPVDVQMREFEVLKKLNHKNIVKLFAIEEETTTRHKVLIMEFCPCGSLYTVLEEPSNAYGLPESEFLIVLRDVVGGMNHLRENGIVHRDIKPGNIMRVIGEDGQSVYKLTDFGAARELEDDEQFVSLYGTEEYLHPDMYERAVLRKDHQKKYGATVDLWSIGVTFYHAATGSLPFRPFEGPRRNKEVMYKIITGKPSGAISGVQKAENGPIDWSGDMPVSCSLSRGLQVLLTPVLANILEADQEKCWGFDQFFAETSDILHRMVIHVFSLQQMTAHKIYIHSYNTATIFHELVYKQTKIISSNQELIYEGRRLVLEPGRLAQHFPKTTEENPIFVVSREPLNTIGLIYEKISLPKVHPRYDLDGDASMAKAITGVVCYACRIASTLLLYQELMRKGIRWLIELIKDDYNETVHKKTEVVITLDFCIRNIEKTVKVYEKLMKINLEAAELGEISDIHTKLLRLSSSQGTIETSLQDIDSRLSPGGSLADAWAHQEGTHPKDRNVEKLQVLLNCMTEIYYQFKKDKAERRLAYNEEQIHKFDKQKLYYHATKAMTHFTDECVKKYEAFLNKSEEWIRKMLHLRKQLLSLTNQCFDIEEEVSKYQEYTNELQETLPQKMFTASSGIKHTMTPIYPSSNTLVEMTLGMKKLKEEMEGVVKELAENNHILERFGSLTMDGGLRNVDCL
# measurementProtocol: TBK Biochemical Assay
# runParameters: read-out: TBK1 IC50
Where a name gives a salt, the structure may show the parent alone.
Overview of recorded IC50 for various compounds
observationType: IC50

compound	recordedResult
COc1cc(C(=O)N[C@@H]2CCNC[C@@H]2F)ccc1-c1cc2nccc(-c3cc(F)c(NC4CCOCC4)c(C#N)c3)c2o1 (single isomer, unassigned) [Compound 253, hydrochloride]	< 100 nM
CCN(CC)C(=O)c1ccc(-c2cc3nccc(-c4ccc(OC5CCOCC5)c(C#N)c4)c3o2)c(OC)c1 [Compound 256, hydrochloride]	< 100 nM
COc1cc(C(=O)N(C)C)ccc1-c1cc2nccc(-c3cc(F)c(OC4C(C)COCC4C)c(C#N)c3)c2o1 (stereo not drawn)	> 5000 nM
CN(C)C(=O)c1ccc(-c2cc3nccc(-c4cc(F)c(N(C)C5CCOCC5)c(C#N)c4)c3o2)cc1 [Compound 225, hydrochloride]	100 to 1000 nM
COc1cc(C(=O)NC2CN(C)C2)ccc1-c1cc2nccc(-c3ccc(OC4CCOCC4)c(C#N)c3)c2o1	< 100 nM
N#Cc1cc(-c2ccnc3cc(-c4ccc(C(=O)NC5CN6CCC5CC6)cc4)oc23)ccc1OC1CCCOC1 (stereo not drawn)	100 to 1000 nM
COc1cc(C(=O)N(C)C)ccc1-c1cc2nccc(-c3ccc(OC4CCOC4)c(C#N)c3)c2o1 (stereo not drawn)	< 100 nM
COc1cc(C(=O)N2CC(F)(F)C2)ccc1-c1cc2nccc(-c3ccc(OC4CCOCC4)c(C#N)c3)c2o1	< 100 nM
COc1cc(C(=O)N(C)C)ncc1-c1cc2nccc(-c3ccc(NC4CCN(C)C4)c(C#N)c3)c2o1 (stereo not drawn)	< 100 nM
COc1cc(C(=O)N(C)C)ccc1-c1cc2nccc(-c3ccc(OC4CCCOC4)c(C#N)c3)c2o1 (stereo not drawn)	< 100 nM
COc1cc(C(=O)N2CC3CCC(C2)O3)ccc1-c1cc2nccc(-c3ccc(OC4CCOCC4)c(C#N)c3)c2o1	< 100 nM
CN(C)C(=O)c1ccc(-c2cc3ncc(F)c(-c4ccc(NC5CCOCC5)c(C#N)c4)c3o2)c(F)c1	100 to 1000 nM
COc1cc(C(=O)N(C)C2CN3CCC2CC3)ccc1-c1cc2nccc(-c3ccc(OC4CCOCC4)c(C#N)c3)c2o1 (stereo not drawn)	< 100 nM
COc1cc(C(=O)N(C)CCO)ccc1-c1cc2ncc(C3CC3)c(-c3ccc(NC4CCOCC4)c(C#N)c3)c2o1	> 5000 nM
COc1cc(C(=O)N(C)C)cnc1-c1cc2nccc(-c3ccc(OC4CCNC4)c(C#N)c3)c2o1 (stereo not drawn)	100 to 1000 nM
COc1cc(C(=O)N(C)C)ccc1-c1cc2nccc(-c3ccc(OC4CN(C(C)C)C4)c(C#N)c3)c2o1	1000 to 5000 nM
CN(C)C(=O)c1ccc(-c2cc3nccc(-c4ccc(NC5C6COCC65)c(C#N)c4)c3o2)cc1 (stereo not drawn) [Compound 217, hydrochloride]	100 to 1000 nM
CN(CCO)C(=O)c1ccc(-c2cc3ncc(C4CC4)c(-c4ccc(OC5CCOCC5)c(C#N)c4)c3o2)c(F)c1	> 5000 nM
COc1cc(C(=O)N(C)C)cnc1-c1cc2ncc(Cl)c(-c3ccc(NC4CCOCC4)c(C#N)c3)c2o1	> 5000 nM
CCOC(=O)c1ccc(-c2cc3nccc(-c4ccc(N5CC[C@@H](F)C5)c(C#N)c4)c3o2)cc1	> 5000 nM
COc1cc(C(=O)N(C)C)cnc1-c1cc2ncc(C)c(-c3ccc(OC4CCOCC4)c(C#N)n3)c2o1 [Compound 321, hydrochloride]	100 to 1000 nM
COc1cc(C(=O)N2CCC(F)(F)C2)ccc1-c1cc2nccc(-c3ccc(OC4CCOCC4)c(C#N)c3)c2o1	< 100 nM
COc1cc(C(=O)N(C)C)ccc1-c1cc2nccc(-c3ccc(OC4(C(F)(F)F)CCNC4)c(C#N)c3)c2o1 (stereo not drawn)	< 100 nM
COc1cc(C(=O)N2CC[C@@H](N(C)C)C2)cnc1-c1cc2nccc(-c3ccc(N4CCC(F)C4)c(C#N)c3)c2o1 (stereo partly drawn)	< 100 nM
N#Cc1cc(-c2ccnc3cc(-c4ccc(C(=O)N5CC[C@H](F)C5)cc4)oc23)ccc1OC1CCOCC1	< 100 nM
COc1cc(C(=O)N(C)C)ccc1-c1cc2nccc(-c3ccc(O[C@H]4[C@H](C)COC[C@@H]4C)c(C#N)c3)c2o1	< 100 nM
COc1cc(C(=O)N2CC3COCC3C2)ccc1-c1cc2nccc(-c3ccc(NC4CCOCC4)c(C#N)c3)c2o1 (stereo not drawn)	< 100 nM
